Listed next: entries and their corresponding ratio, Mutant[Relative growth]/Orignal[Relative growth].
Test system: Pseudomonas aeruginosa
Assay details: Mutant library in vitro inhibition activity, Pseudomonas aeruginosa
Assay type: cell-based
Measurement parameters: relative growth after 18 hours of co-incubation

Solved cases (8 shown):
RWRRHLHFKRPHRKHKR [Mut 111] : 1.71
RWRRHVHFKRPHRKHKR [Mut 120] : 3.684
RWRRHKWFKRPHRKHKR [Mut 138] : 1.315
RWRRHGHFKRPHRKHKR [Mut 108] : 1.191
RWRFHKHFKRPHRKHKR [Mut 74] : 1.017
RWRRHKHFKRDHRKHKR [Mut 204] : 2.107
RWRRHKHFKRMHRKHKR [Mut 213] : 1.185
RWRRHKHFKRRHRKHKR [Mut 202] : 1.3565

Q: Retrieve ratio, Mutant[Relative growth]/Orignal[Relative growth] measured for RRRRHKHFKRPHRKHKR [Mut 22] and print it.
Ans: 2.073

Q: Supply measured ratio, Mutant[Relative growth]/Orignal[Relative growth] of RWRRFKHFKRPHRKHKR [Mut 94] in your reply.
Ans: 1.211

Q: Specify reported ratio, Mutant[Relative growth]/Orignal[Relative growth] for the sequence shown: RWRRHKYFKRPHRKHKR [Mut 139]
Ans: 1.164

Q: Hello, please tell me recorded ratio, Mutant[Relative growth]/Orignal[Relative growth] for this one: RWRRHKHFKRFHRKHKR [Mut 214]
Ans: 1.134

Q: Identify ratio, Mutant[Relative growth]/Orignal[Relative growth] associated with the sequence RWRRMKHFKRPHRKHKR [Mut 93]
Ans: 1.035

Q: // fetch ratio, Mutant[Relative growth]/Orignal[Relative growth] given entry RWRRHFHFKRPHRKHKR [Mut 114]
Ans: 10.95

Q: Consider the sequence RWRRWKHFKRPHRKHKR [Mut 98] . State its measured ratio, Mutant[Relative growth]/Orignal[Relative growth].
Ans: 1.183

Q: Fill in ratio, Mutant[Relative growth]/Orignal[Relative growth] for record RWRRHHHFKRPHRKHKR [Mut 109]
Ans: 1.395

Q: Complete the entry with ratio, Mutant[Relative growth]/Orignal[Relative growth] for RWRRHIHFKRPHRKHKR [Mut 110]
Ans: 4.387

Q: Note ratio, Mutant[Relative growth]/Orignal[Relative growth] for the sequence shown: RWRRHRHFKRPHRKHKR [Mut 102]
Ans: 1.077

Q: State its ratio, Mutant[Relative growth]/Orignal[Relative growth] for this sequence: RWRRHKRFKRPHRKHKR [Mut 122]
Ans: 3.121

Q: Tell me ratio, Mutant[Relative growth]/Orignal[Relative growth] reported for RWRRHKAFKRPHRKHKR [Mut 121]
Ans: 2.297
